Attribution: paper PMC6259134

Field: π determined Pyr. Provide a value for each of the molecules that follow.
Test: Lipophilicity determination by RP-HPLC (capacity factor k / log k, distributive π parameters)
Assay type: physicochemical
Settings: distributive parameter of pyrazine substituents, calculated from log k
Experimental: The procedure was performed under isocratic conditions with methanol as an organic modifier in the mobile phase using an end-capped non-polar C18 stationary RP column. The results are shown in Table 1 and illustrated in Figure 2. […] The HPLC separation process was monitored by Empower™ 2 Chromatography Data Software, Waters 2009 (Waters Corp., Milford, MA, USA). […] Retention times (tR) were measured in minutes. […]

Q: What does the record list as π determined Pyr for CC(C)(C)c1ncc(C(=O)Nc2ccc(Cl)cc2)nc1Cl ?
Ans: 1.00

Q: What does the record list as π determined Pyr for O=C(Nc1ccc(Cl)cc1)c1cncc(Cl)n1 ?
Ans: 0.32

Q: What does the record list as π determined Pyr for O=C(Nc1ccc(Cl)cc1)c1cnccn1 ?
Ans: 0.00

Q: What does the record list as π determined Pyr for CC(C)(C)c1cnc(C(=O)Nc2ccc(Cl)cc2)cn1 ?
Ans: 0.61

Q: What does the record list as π determined Pyr for O=C(Nc1c(Cl)cccc1Cl)c1cnccn1 ?
Ans: 0.00

Q: What does the record list as π determined Pyr for O=C(Nc1ccc(Cl)c(Cl)c1)c1cnccn1 ?
Ans: 0.00

Q: What does the record list as π determined Pyr for O=C(Nc1cccc(Cl)c1)c1cncc(Cl)n1 ?
Ans: 0.30

Q: What does the record list as π determined Pyr for CC(C)(C)c1cnc(C(=O)Nc2ccc(Cl)c(Cl)c2)cn1 ?
Ans: 0.62

Q: What does the record list as π determined Pyr for CC(C)(C)c1ncc(C(=O)Nc2c(Cl)cccc2Cl)nc1Cl ?
Ans: 1.00

Q: What does the record list as π determined Pyr for CC(C)(C)c1cnc(C(=O)Nc2c(Cl)cccc2Cl)cn1 ?
Ans: 0.61

Q: What does the record list as π determined Pyr for CC(C)(C)c1ncc(C(=O)Nc2ccc(Cl)c(Cl)c2)nc1Cl ?
Ans: 1.04

Q: What does the record list as π determined Pyr for CC(C)(C)c1ncc(C(=O)Nc2cccc(Cl)c2)nc1Cl ?
Ans: 1.00

Q: What does the record list as π determined Pyr for O=C(Nc1ccc(Cl)c(Cl)c1)c1cncc(Cl)n1 ?
Ans: 0.28

Q: What does the record list as π determined Pyr for O=C(Nc1cccc(Cl)c1)c1cnccn1 ?
Ans: 0.00
